Test system: U251 CNS
protocol_details: NCI-60 one-dose screen, 48 h (100 = growth as untreated, 0 = no growth, -100 = all killed)
assay_context: 10 µM
Procedure: Growth inhibition of the U251 human tumor cell line is measured as a screen for anti-cancer activity. Cells are grown in 96 well plates and exposed to the test compound for 48 hours. Compounds are tested at a single concentration, which is 10^-5 M for most compounds. The reported endpoint is percent growth (GI% or GIPRCNT), where numbers from 0 - 100% represent growth inhibition, and numbers from -100% - 0 represent cell death. For example, a value of 40 represents 60% growth inhibition. […]
Compounds without any hit were thinned out: in the full panel of roughly 83,000, 20% have a hit.
The threshold is 70%. Values of growth beneath it are tagged fulfilled; values meeting or exceeding it are tagged not fulfilled.

{"columns": ["compound", "class_label"],
 "data": [
  ["O=C1/C=C/[C@@H](O)[C@@H]2C[C@@H](O)C[C@H]2/C=C/CCC[C@H](CCc2ccc(C(F)(F)F)cc2)O1", "fulfilled"],
  ["O=C(CCCSc1nc(-c2ccccc2)cc(-c2ccc(Cl)cc2)n1)NO", "fulfilled"],
  ["CCOC(=O)c1sc2ncnc(Nc3ccc4c(cnn4C(=O)Nc4ccccc4)c3)c2c1C", "fulfilled"],
  ["COc1ccc(-c2cc(-c3ccc(Cl)cc3)nc(SCCCCCCC(=O)NO)n2)cc1OC", "fulfilled"],
  ["C#CC(C)(O)[C@@H]1C[C@H](CC(=O)O)C1(C)C (some centres not stated)", "not fulfilled"],
  ["Nc1ccc(/C=N/Nc2ccnc3c(O)cccc23)c2cccnc12", "fulfilled"],
  ["COc1ccc([C@H]2[C@H](C(=O)Nc3cccnc3)c3ccccc3C(=O)N2c2ccccc2)cc1", "not fulfilled"],
  ["CSc1nc2c(c(=O)n1C)CN(Cc1ccccc1)C(=O)CN2", "not fulfilled"],
  ["Clc1ccc(Cc2ccncc2)cc1", "not fulfilled"],
  ["O=C1CSC(=S)N1/N=C/c1ccc(Cl)s1", "not fulfilled"],
  ["CCOC(=O)c1cocc1C(=O)O", "not fulfilled"],
  ["CCN(CC)CCOc1cccc2c1C(=O)c1ccccc1C2=O", "not fulfilled"],
  ["O=C1CC(SC(=S)C2CCCC2=O)C(=O)N1 (configuration not stated)", "not fulfilled"],
  ["COc1cc2cc(Oc3ccc(NC(=O)c4ccc(Cl)c(C(F)(F)F)c4)cc3)c(C)nc2cc1OC", "fulfilled"],
  ["CCC1NC(=O)c2cc(S(N)(=O)=O)c(Cl)cc2N1 (configuration not stated)", "not fulfilled"],
  ["CCOC(=O)c1cc(C(=O)c2cc(OC)c(OC)c(OC)c2)n2nc(C)ccc12", "fulfilled"],
  ["CCOc1ccccc1/C=N\\N=C\\c1ccccc1O", "not fulfilled"],
  ["CCCCc1oc2ccccc2c1C(=O)c1cc(I)c(OCCN(CC)CC)c(I)c1", "fulfilled"],
  ["COc1cc(C2CC(c3ccc4c(c3)OCO4)=NN2c2ccccc2)cc(OC)c1OC (configuration not stated)", "fulfilled"],
  ["CC(=O)Nc1cc2c(cc1Cl)Cc1cc(Cl)ccc1-2", "not fulfilled"],
  ["Clc1ccc(/C=C2\\CCCC3C2=Nc2ccccc2NC3c2ccc(Cl)cc2)cc1 (configuration not stated)", "fulfilled"],
  ["CN(C)CCOc1cccc(NC2=C(Cl)C(=O)C(Nc3cccc(OCCN(C)C)c3)=C(Cl)C2=O)c1", "fulfilled"]
]}
